# Tested on: Primary Neurons
# method description: HCS neurite outgrowth assay (High Content Screening with Primary Neurons)
# Format: cell-based
# measurement parameters: Primary neuron
experimental endpoint: EC50 (µM)
Record the value in µM, omitting the unit from your answer.

Consider the reported EC50 for these compounds:
{"compound": "O=C(N[C@@H]1CNC[C@H]1NC(=O)c1ccc(C(=O)c2ccccc2O)cc1Cl)c1ccncc1 [Example A65]", "measurement target": "Primary Neurons", "EC50, µM": 7.11}
{"compound": "COc1ccc(OC)c(C(=O)c2ccc(C(=O)N[C@@H]3CCCC[C@H]3NC(=O)c3ccncc3)cc2)c1F [Example A21]", "measurement target": "Primary Neurons", "EC50, µM": 2.92}
{"compound": "COc1ccc(O)c(C(=O)c2ccc(C(=O)NCCNC(=O)c3ccncc3)cc2)c1F [Example A27]", "measurement target": "Primary Neurons", "EC50, µM": 7.9}
{"compound": "COc1ccc(O)c(C(=O)c2ccc(C(=O)N[C@@H]3CNC[C@H]3NC(=O)c3ccc(O)nc3)cc2)c1F [Example A39]", "measurement target": "Primary Neurons", "EC50, µM": 3.76}
{"compound": "O=C(N[C@@H]1CNC[C@H]1NC(=O)c1ccc(C(=O)c2cc(-c3ccccc3)ccc2O)cc1)c1ccncc1 [Example A93]", "measurement target": "Primary Neurons", "EC50, µM": 13.3}

Write down EC50 measured for item COc1ccc(O)c(C(=O)c2ccc(C(=O)N[C@@H]3CNC[C@H]3NC(=O)c3ccncc3)cc2)c1 [Example A77] 10.4

Check the records and state EC50 for COc1ccc(O)c(C(=O)c2ccc(C(=O)N[C@@H]3CNC[C@H]3NC(=O)c3ccnc(O)c3)cc2)c1F [Example A40] 9.62

Specify reported EC50 for the compound shown: O=C(N[C@@H]1CNC[C@H]1NC(=O)c1ccncc1)c1ccccc1 (stereo in doubt) [Example A20] 9.49

Kindly indicate its recorded EC50. Item: COc1ccc(OC)c(C(=O)c2ccc(C(=O)Nc3ccncc3NC(=O)c3ccncc3)cc2)c1F [Example A1] 9.34

In one line, give reported EC50 of the entry COc1ccc(O)c(C(=O)c2ccc(C(=O)N[C@@H]3CNC[C@H]3NC(=O)Cc3cn[nH]c3)cc2)c1F [Example A47] . 7.43

Specify reported EC50 for the compound shown: COc1ccc(OC)c(C(=O)c2ccc(C(=O)N[C@@H]3CCC[C@H]3NC(=O)c3ccncc3)cc2)c1F [Example A17] 1.83

State, in one line, measured EC50 of CCc1ccc(O)c(C(=O)c2ccc(C(=O)N[C@@H]3CNC[C@H]3NC(=O)c3ccncc3)cc2)c1 [Example A95] 9.77

---

Reported values of activity at 10 µM for individual entries
# System: neurons from hippocampi of E18 rat embryos
# method description: Neurite growth length (% NTL) in cultured E18 rat hippocampal neurons, 9-point dose response, 48 hours
# Type: cell-based
# measurement parameters: Rattus norvegicus, Neuron, 48 h, 10 μM
The reply should be a number in %, with the unit left off.

Some compounds with recorded activity at 10 µM:
{"compound": "O=C(N[C@@H]1c2ccccc2C[C@H]1NC(=O)c1ccncc1)c1ccc(C(=O)c2ccccc2)cc1 [Example A11]", "measurement target": "neurons from hippocampi of E18 rat embryos", "value units": "%", "activity at 10 µM": 110}
{"compound": "COc1ccc(O)c(C(=O)c2ccc(C(=O)N[C@@H]3CNC[C@H]3NC(=O)c3ccc(O)cc3)cc2)c1F [Example A37]", "measurement target": "neurons from hippocampi of E18 rat embryos", "value units": "%", "activity at 10 µM": 155}
{"compound": "COc1ccc(O)c(C(=O)c2ccc(C(=O)N[C@@H]3CNC[C@H]3NC(=O)c3ccc4c(cnn4C)c3)cc2)c1F [Example A53]", "measurement target": "neurons from hippocampi of E18 rat embryos", "value units": "%", "activity at 10 µM": 91.9}

Moving on to the next compound.
Enter measured activity at 10 µM, system neurons from hippocampi of E18 rat embryos, for the compound shown: COc1ccc(C(=O)c2ccc(C(=O)N[C@@H]3CNC[C@H]3NC(=O)c3ccnc(N)n3)cc2)c(O)c1 [Example A82] 131

---

# System: neurons from hippocampi of E18 rat embryos
# method description: Neurite growth length (% NTL) in cultured E18 rat hippocampal neurons, 9-point dose response, 48 hours
# Assay type: cell-based
# measurement parameters: Rattus norvegicus, Neuron, 48 h, 10 μM
Overview of reported activity at 10 µM across a group of compounds:
Field: numeric (%). Do not append units.

Could you please provide reported activity at 10 µM for COc1ccc(O)c(C(=O)c2ccc(C(=O)Nc3ccncc3NC(=O)c3ccncc3)cc2)c1F [Example A2] ? Thanks! 93.4

Given the compound O=C(Nc1ccncc1NC(=O)c1ccncc1)c1ccc(C(=O)c2ccccc2)cc1 [Example A3] , write its reported activity at 10 µM. 92.9

In one line, give reported activity at 10 µM of the entry COc1cc(C(=O)c2ccccc2O)ccc1C(=O)N[C@@H]1CNC[C@H]1NC(=O)c1ccnc(N)n1 [Example A68] . 102

Answer with the recorded activity at 10 µM for the compound listed here: O=C(N[C@@H]1CNC[C@H]1NC(=O)c1ccc(C(=O)c2c(O)cccc2F)cc1)c1ccncc1 [Example A51] 506

Identify measured activity at 10 µM corresponding to COc1ccc(O)c(C(=O)c2ccc(C(=O)N[C@@H]3CNC[C@H]3NC(=O)c3ccc(O)nc3)cc2)c1F [Example A39] 98.9

Query activity at 10 µM for Cc1ccc(C(=O)c2ccc(C(=O)N[C@@H]3CNC[C@H]3NC(=O)c3ccncc3)cc2)c(O)c1 [Example A81] 113

Please report the measured activity at 10 µM for COc1ccc(OC)c(C(=O)c2ccc(C(=O)N[C@@H]3CCCC[C@H]3NC(=O)c3ccncc3)cc2)c1F [Example A21] 107

---

# Test system: Primary Neurons
# method description: HCS neurite outgrowth assay (High Content Screening with Primary Neurons)
# Type: cell-based
# measurement parameters: Primary neuron
pEC50: −log10 of the molar value.
Binary classification by pEC50, with 6 as an inclusive lower bound for YES; all other cases are NO.

{"molecule": "COc1ccc(OC)c(C(=O)c2ccc(C(=O)N[C@@H]3CCCCC[C@H]3NC(=O)c3ccncc3)cc2)c1F [Example A24]", "category": "NO"}
{"molecule": "Cc1cc(C(=O)N[C@@H]2CNC[C@H]2NC(=O)c2ccncc2)ccc1C(=O)c1ccccc1O [Example A64]", "category": "YES"}
{"molecule": "COc1ccc(OC)c(C(=O)c2ccc(C(=O)O[C@@H]3CN(C)C[C@H]3NC(=O)c3ccncc3)cc2)c1F [Example A28]", "category": "NO"}
{"molecule": "COc1ccc(O)c(C(=O)c2ccc(C(=O)N[C@@H]3CNC[C@H]3NC(=O)c3ccnc(N)n3)cc2)c1 [Example A76]", "category": "NO"}

// next entry
Quick check: does O=C(N[C@@H]1CNC[C@H]1NC(=O)c1ccc(C(=O)c2cc(C(F)(F)F)ccc2O)cc1)c1ccncc1 [Example A99] have pEC50 greater than or equal to 6? NO

---

# Tested on: Primary Neurons
# method description: HCS neurite outgrowth assay (High Content Screening with Primary Neurons)
# Assay type: cell-based
# measurement parameters: Primary neuron
experimental endpoint: pEC50
A value of pEC50 is the negative decimal logarithm of a concentration given in moles per litre.

Consider the worked cases shown below.
{"structure as smiles": "O=C(Nc1ccccc1NC(=O)c1ccc(C(=O)c2ccccc2)cc1)c1ccncc1", "pEC50": 5.78}
{"structure as smiles": "CCOc1ccc(O)c(C(=O)c2ccc(C(=O)N[C@@H]3CNC[C@H]3NC(=O)c3ccncc3)cc2)c1", "pEC50": 5.75}
{"structure as smiles": "O=C(N[C@@H]1CNC[C@H]1NC(=O)c1ccc2[nH]ncc2c1)c1ccc(C(=O)c2c(O)cccc2F)cc1", "pEC50": 5.61}

// Input: O=C(N[C@@H]1CCC[C@H]1NC(=O)c1ccc(C(=O)c2ccccc2)cc1)c1ccncc1 . Output its pEC50 only. 5.11

Annotate the compound COc1ccc(O)c(C(=O)c2ccc(C(=O)N[C@@H]3CCCNC[C@H]3NC(=O)c3ccncc3)cc2)c1F with its measured pEC50. 6.09

Respond only with pEC50 recorded for COc1ccc(O)c(C(=O)c2ccc(C(=O)N[C@@H]3CNC[C@H]3NC(=O)c3ccc4c(cnn4C)c3)cc2)c1F 6.09

---

# Tested on: neurons from hippocampi of E18 rat embryos
# method description: Neurite growth length (% NTL) in cultured E18 rat hippocampal neurons, 9-point dose response, 48 hours
# Assay type: cell-based
# measurement parameters: Rattus norvegicus, Neuron, 48 h, 10 μM
Measured activity at 10 µM by item
Write it as a number; the unit % goes unstated.

Solved cases (3 shown):
{"compound": "O=C(N[C@@H]1CNC[C@H]1NC(=O)c1ccc(C(=O)c2ccccc2)cc1)c1ccncc1 (stereo in doubt) [Example A13]", "value units": "%", "activity at 10 µM": 129}
{"compound": "O=C(N[C@@H]1CNC[C@H]1NC(=O)c1ccc(C(=O)c2cc(Cl)ccc2O)cc1)c1ccncc1 [Example A85]", "value units": "%", "activity at 10 µM": 534}
{"compound": "COc1cccc(C(=O)c2ccc(C(=O)N[C@@H]3CNC[C@H]3NC(=O)c3ccnc(N)n3)cc2)c1O [Example A72]", "value units": "%", "activity at 10 µM": 127}

Provide one value: measured activity at 10 µM of COc1ccc(O)c(C(=O)c2ccc(C(=O)N[C@@H]3CNC[C@H]3NC(=O)c3ccnc(N)n3)cc2)c1F [Example A36] 480

Read off the recorded activity at 10 µM for COc1ccc(O)c(C(=O)c2ccc(C(=O)N[C@@H]3CNC[C@H]3NC(=O)c3ccc4cn[nH]c4c3)cc2)c1F [Example A57] 107

Respond only with activity at 10 µM recorded for COc1ccc(O)c(C(=O)c2ccc(C(=O)N[C@@H]3CNC[C@H]3NC(=O)c3ccc4[nH]nnc4c3)cc2)c1F [Example A58] 89.5

Give the value of activity at 10 µM reported for the following: COc1ccc(O)c(C(O)c2ccc(C(=O)N[C@@H]3CNC[C@H]3NC(=O)c3ccnc(N)n3)cc2)c1F (stereo partly drawn) [Example A44] 103

Where do the numbers come from? From patent US11926613B2.
